# SYSTEM TESTED: Ae. aegypti NPYLR7 (Aedes aegypti)
# Sequence (U5N1H5 entry or part of it): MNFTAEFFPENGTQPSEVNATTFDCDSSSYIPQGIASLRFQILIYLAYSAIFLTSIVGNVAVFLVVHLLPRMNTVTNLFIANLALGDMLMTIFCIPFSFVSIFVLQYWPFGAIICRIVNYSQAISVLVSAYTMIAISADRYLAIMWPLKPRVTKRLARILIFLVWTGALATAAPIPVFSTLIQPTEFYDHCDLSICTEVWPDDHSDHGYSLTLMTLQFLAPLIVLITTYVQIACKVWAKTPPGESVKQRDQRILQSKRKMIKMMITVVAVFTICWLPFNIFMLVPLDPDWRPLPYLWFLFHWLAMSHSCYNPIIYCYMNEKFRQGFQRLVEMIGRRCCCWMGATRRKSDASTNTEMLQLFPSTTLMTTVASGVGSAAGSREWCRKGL
# ASSAY PROCEDURE: In vitro calcium (GCaMP6s) FLIPR assay in HEK293T cells transfected with NPYLR7
# Assay type: cell-based
# CONDITION PARAMETERS: EC50 of the individual assay date/plate (assay date); read-out: EC50
Rule: EC50 below 6 µM gives true. Equal to or above 6 µM gives false.

CCOc1ccc2c(C)nc(NC(=N)N)nc2c1 [TDI-014177]: true
Cc1nc(NC(=N)N)nc2cc(OCC3CC3)ccc12 [TDI-014171]: true
Cc1nc(NC(=N)N)nc2cc(OCc3ccc(S(C)(=O)=O)cc3)ccc12 [TDI-014182]: true
Cc1nc(NC(=N)N)nc2cc(OCc3cccnn3)ccc12 [TDI-014179]: false
Cc1nc(NC(=N)N)nc2cc(OCC3CCCCO3)ccc12 (stereo not shown) [TDI-014192]: true
CCOc1ccc(COc2ccc3c(C)nc(NC(=N)N)nc3c2)cc1 [TDI-014176]: false
Cc1nc(NC(=N)N)nc2cc(OCc3ccc(OC(F)(F)F)cc3)ccc12 [TDI-014172]: false
CNc1nc(NC(=N)N)nc2cc(OCc3ccc(OC)cc3)ccc12 [TDI-014190]: true
COc1ccc(COc2ccc3c(C)nc(NC(=N)N)nc3c2)cc1OC [TDI-014180]: true
COc1ccc(OCc2ccc3c(C)nc(NC(=N)N)nc3c2)cc1 [TDI-014175]: true
